Reported FI (BTK-1h)/FI (BTK-1h+Inhibitor) at 620 nm values are given for each entry in this list.
# Target system: BTK-1h (Homo sapiens, UniProt Q06187)
# Construct: The BTK kinase domain was diluted to 2 μM in the buffer, and 2 μM 1h was added; made in house
# Sequence (Q06187 402-655): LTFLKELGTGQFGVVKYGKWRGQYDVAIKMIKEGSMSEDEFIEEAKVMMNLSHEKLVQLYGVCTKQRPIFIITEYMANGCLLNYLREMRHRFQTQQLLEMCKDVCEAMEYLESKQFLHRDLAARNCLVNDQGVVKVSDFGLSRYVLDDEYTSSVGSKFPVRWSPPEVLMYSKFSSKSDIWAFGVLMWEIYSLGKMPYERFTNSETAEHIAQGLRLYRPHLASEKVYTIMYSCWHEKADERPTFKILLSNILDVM
# Test description: High-throughput screening with 1h-labeled BTK
# Assay type: binding
# Details: Dataset S2A; 200 μM compound, BTK-1h, 32 °C, 10 min
The answer should be a number; do not append a unit.

compound="Nc1cccc(-c2cc3c(Oc4cccc(O)c4)ncnc3[nH]2)c1 [PCM-0095147-003]" quantitative_readout=1.107
compound="COc1ccc2c(O[C@@H]3C[C@H]4C(=O)N[C@]5(C(=O)NS(=O)(=O)C6CC6)C[C@H]5/C=C\\CCCCN(C)C(=O)[C@@H]4C3)cc(-c3nc(C(C)C)cs3)nc2c1C [PCM-0215097-001]" quantitative_readout=1.053

Quick note, FI (BTK-1h)/FI (BTK-1h+Inhibitor) at 620 nm for CC(C)(O)CC(=O)NCCn1ccc2ncnc(Nc3ccc(Oc4cccc(C(F)(F)F)c4)c(Cl)c3)c21 [PCM-0095364-002] landed at 1.06

====

# Target system: BTK-1h (Homo sapiens, UniProt Q06187)
# Construct: The BTK kinase domain was diluted to 2 μM in the buffer, and 2 μM 1h was added; made in house
# Test description: High-throughput screening with 1h-labeled BTK
# Type: binding
# Details: Dataset S2A; 200 μM compound, BTK-1h, 32 °C, 10 min
Reported FI (BTK-1h)/FI (BTK-1h+Inhibitor) at 620 nm values are given for each entry in this list.
The answer should be a number; do not append a unit.

Observe how each entry below is paired with its result.
compound="Cl.Cl.Cl.O[C@@H](COc1cccc2ncccc12)CN1CCN(C2c3ccccc3[C@@H]3[C@H](c4ccccc42)C3(F)F)CC1 (stereo partly shown)" quantitative_readout=1.115
compound=Cc1cc(-c2ccc(N=Nc3ccc4c(S(=O)(=O)[O-])cc(S(=O)(=O)[O-])c(N)c4c3O)c(C)c2)ccc1N=Nc1ccc2c(S(=O)(=O)[O-])cc(S(=O)(=O)[O-])c(N)c2c1O.[Na+].[Na+].[Na+].[Na+] quantitative_readout=7.121
compound=Nc1ccc(O)cc1 quantitative_readout=1.005
compound=Cc1cc(C(=O)Nc2nc3cccc(Cl)c3n2[C@@H]2CCCCN(C(=O)/C=C/CN(C)C)C2)ccn1 quantitative_readout=1.069
compound=COc1cc(N2CCC(N3CCN(C)CC3)CC2)ccc1Nc1ncnc(Nc2ccccc2S(=O)(=O)C(C)C)n1 quantitative_readout=1.327
compound=C[n+]1cc2c3c(ccc2c2ccc4cc5c(cc4c21)OCO5)OCO3.[Cl-] quantitative_readout=1.003

BTK-1h (Homo sapiens, UniProt Q06187) assay, compound O=c1c(O)c(-c2ccc(O)cc2)oc2cc(O)cc(O)c12 , recorded FI (BTK-1h)/FI (BTK-1h+Inhibitor) at 620 nm = 1.031

BTK-1h (Homo sapiens, UniProt Q06187) assay, compound Cl.N/C(=N\N=C\c1ccc(Cl)cc1)N/N=C/c1ccc(Cl)cc1 , recorded FI (BTK-1h)/FI (BTK-1h+Inhibitor) at 620 nm = 1.002

BTK-1h (Homo sapiens, UniProt Q06187) assay, compound CN1CCN(Cc2ccc(-c3cnc4[nH]cc(-c5ccc6[nH]ccc6c5)c4c3)cc2)CC1 , recorded FI (BTK-1h)/FI (BTK-1h+Inhibitor) at 620 nm = 1.04
